# IC50 annotations
# Tested on: P-Akt (S473)
# Experimental protocol: Cell based AlphaLISA assay, inhibition of P-Akt (S473) (mTORC2 substrate phosphorylation) in MDA-MB-468 cells
# Experimental context: Homo sapiens, MDA-MB-468, 4 h, AlphaLISA, two to four hours at 37° C., read-out: pIC50 for Inhibition of mTORC1 and mTORC2 Substrate Phosphorylation, p-AKT 1/2/3 -(S473) (converted)

See these solved cases before continuing.
Sample smiles: CO[C@H]1C[C@@H]2CC[C@@H](C)[C@@](O)(O2)C(=O)C(=O)N2CCCC[C@H]2C(=O)O[C@H]([C@H](C)C[C@@H]2CC[C@@H](OCCCCc3cn(CCOCCOCCOCCOCCOCCOCCOCCOCCC(=O)NCCCCn4nc(I)c5c(N)ncnc54)nn3)[C@H](OC)C2)CC(=O)[C@H](C)/C=C(\C)[C@@H](O)[C@@H](OC)C(=O)[C@H](C)C[C@H](C)/C=C/C=C/C=C/1C
Study system: P-Akt (S473)
Assay endpoint: IC50
Recorded result: > 1000 nM
--
Sample smiles: CO[C@H]1C[C@@H]2CC[C@@H](C)[C@@](O)(O2)C(=O)C(=O)N2CCCC[C@H]2C(=O)O[C@H]([C@H](C)C[C@@H]2CC[C@@H](O)[C@H](OC)C2)C[C@@H](OC)[C@H](C)/C=C(\C)[C@@H](O)[C@@H](OC)C(=NOCc2cn(CCOCCOCCOCCOCCC(=O)NCCCCn3nc(-c4ccc5oc(N)nc5c4)c4c(N)ncnc43)nn2)[C@H](C)C[C@H](C)/C=C/C=C/C=C/1C
Study system: P-Akt (S473)
Assay endpoint: IC50
Recorded result: > 1000 nM

Could you now consider this next compound?
// CO[C@H]1C[C@@H]2CC[C@@H](C)[C@@](O)(O2)C(=O)C(=O)N2CCCC[C@H]2C(=O)O[C@H]([C@H](C)C[C@@H]2CC[C@@H](OCc3cccc(-c4cnc(N5CCN(Cc6cn(CCOCCOCCOCCC(=O)NCCCCn7nc(-c8ccc9oc(N)nc9c8)c8c(N)ncnc87)nn6)CC5)nc4)c3)[C@H](OC)C2)CC(=O)[C@H](C)/C=C(\C)[C@@H](O)[C@@H](OC)C(=O)[C@H](C)C[C@H](C)/C=C/C=C/C=C/1C : IC50 value = 3.16 to 31.6 nM

* * *

# System: P-Akt (S473)
# Experimental protocol: Cell based AlphaLISA assay, inhibition of P-Akt (S473) (mTORC2 substrate phosphorylation) in MDA-MB-468 cells
# Experimental context: Homo sapiens, MDA-MB-468, 4 h, AlphaLISA, two to four hours at 37° C., read-out: pIC50 for Inhibition of mTORC1 and mTORC2 Substrate Phosphorylation, p-AKT 1/2/3 -(S473) (converted)
# Protocol: Cell Based AlphaLISA Assays for Determining IC50 for Inhibition of P-Akt (S473), P-4E-BP1 (T37/46), and P-P70S6K (T389) in MDA-MB-468 Cells mTOR Kinase Cellular Assay To measure functional activity of mTORC1 and mTORC2 in cells the phosphorylation of 4EBP1 (Thr37/46) and P70S6K (Thr389), and AKT1/2/3 (Ser473) was monitored using AlphaLisa SureFire Ultra Kits (Perkin Elmer). […] Incubations were terminated by removal of the assay buffer and addition of lysis buffer provided with the assay kit. […]
# IC50 annotations

See these solved cases before continuing.
Molecule: CO[C@H]1C[C@@H]2CC[C@@H](C)[C@@](O)(O2)C(=O)C(=O)N2CCCC[C@H]2C(=O)O[C@H]([C@H](C)C[C@@H]2CC[C@H](n3cc(-c4cnc(N5CCN(c6ncc(C(=O)NCCOCCOCCOCCOCCC(=O)NCCCCn7nc(-c8ccc9oc(N)nc9c8)c8c(N)ncnc87)cn6)CC5)nc4)nn3)[C@H](OC)C2)CC(=O)[C@H](C)/C=C(\C)[C@@H](O)[C@@H](OC)C(=O)[C@H](C)C[C@H](C)/C=C/C=C/C=C/1C [Example 115]
IC50: < 3.16 nM
//
Molecule: COc1cccc2cc(-c3nc([C@H]4CC[C@H](C(=O)NCCOCCOCCOCCNC(=O)CCOCCOCCOCCOCCn5cc(CCCCO[C@@H]6CC[C@@H](C[C@@H](C)[C@@H]7CC(=O)[C@H](C)/C=C(\C)[C@@H](O)[C@@H](OC)C(=O)[C@H](C)C[C@H](C)/C=C/C=C/C=C(\C)[C@@H](OC)C[C@@H]8CC[C@@H](C)[C@@](O)(O8)C(=O)C(=O)N8CCCC[C@H]8C(=O)O7)C[C@H]6OC)nn5)CC4)n4ncnc(N)c34)[nH]c12 [Example 189]
IC50: 3.16 to 31.6 nM
//
Molecule: CO[C@H]1C[C@@H]2CC[C@@H](C)[C@@](O)(O2)C(=O)C(=O)N2CCCC[C@H]2C(=O)O[C@H]([C@H](C)C[C@@H]2CC[C@@H](OCCCCc3cn(CCOCCOCCOCCOCCNC(=O)CCCC(=O)NCCCCn4nc(-c5ccc6oc(N)nc6c5)c5c(N)ncnc54)nn3)[C@H](OC)C2)CC(=O)[C@H](C)/C=C(\C)[C@@H](O)[C@@H](OC)C(=O)[C@H](C)C[C@H](C)/C=C/C=C/C=C/1C [Example 101]
IC50: 3.16 to 31.6 nM

Could you now consider this next molecule?
// CO[C@H]1C[C@@H]2CC[C@@H](C)[C@@](O)(O2)C(=O)C(=O)N2CCCC[C@H]2C(=O)O[C@H]([C@H](C)C[C@@H]2CC[C@H](n3cc(-c4cnc(N5CCN(c6ncc(C(=O)NCCOCCOCCOCCC(=O)NCCCCn7nc(-c8ccc9oc(N)nc9c8)c8c(N)ncnc87)cn6)CC5)nc4)nn3)[C@H](OC)C2)CC(=O)[C@H](C)/C=C(\C)[C@@H](O)[C@@H](OC)C(=O)[C@H](C)C[C@H](C)/C=C/C=C/C=C/1C [Example 113] : IC50 value = 3.16 to 31.6 nM

Provenance of the data: patent US20230093861A1
